Entry source: PubChem BioAssay (NCI)

Below, each entry is listed alongside its reported TGI.
# Tested on: UACC-62 melanoma
# test.method.notes: NCI tumour cell line growth inhibition, 48 h
quantity.name: TGI

INSERT INTO measurements (compound, measured_value) VALUES
  ('Nc1cccc2c1C(=O)c1cccc(N)c1C2=O', '> 100 µM'),
  ('CS(=O)(=O)OCCN1CCN(C(=O)c2cccc3c(Nc4ccc(S(=O)(=O)N=C(N)N)cc4)c4ccccc4nc23)CC1', '> 100 µM'),
  ('CC1CC#CCOC(=O)CCCC1=O (stereo not drawn)', '> 100 µM');

---

# Tested on: EKVX NSCLC
# test.method.notes: NCI tumour cell line growth inhibition, 48 h
Recorded TGI by entry
quantity.name: TGI

INSERT INTO assay_data (molecule, system_name, measured_value) VALUES
  ('Clc1ccc(N2N=C(c3cccc(Nc4ccncc4)c3)CC2c2ccc3c(c2)OCO3)cc1 (centres undefined)', 'EKVX NSCLC', '13.3 µM'),
  ('CC1OC(OCC2OC(Oc3c(-c4ccc(O)cc4)oc4cc(O)cc(O)c4c3=O)C(OC3OC(C)C(O)C(O)C3O)C(O)C2O)C(O)C(O)C1O (centres undefined)', 'EKVX NSCLC', '> 100 µM'),
  ('CC(=O)O[C@@H]1C[C@@]23C[C@@]24CC[C@H](OC2OCC(O)C(O)C2O)C(C)(C)[C@@H]4CC=C3[C@]2(C)C[C@@H]3OC4(C[C@@H](C)[C@@H]3[C@@]12C)OC(O)[C@@]1(C)O[C@@H]41 (some centres undefined)', 'EKVX NSCLC', '> 100 µM'),
  ('NCCCOCC(=O)O', 'EKVX NSCLC', '> 100 µM'),
  ('C[C@@H](O)C(=O)N1[C@@H]2CC3CC[C@]2(CS1(=O)=O)C3(C)C', 'EKVX NSCLC', '> 100 µM'),
  ('CCOC(=O)C1(Br)C(c2ccccc2)NC(=O)NC1(C)Br (centres undefined)', 'EKVX NSCLC', '> 100 µM'),
  ('Cc1ccccc1-n1c(C)nc2c1C(=O)c1ccccc1C2=O', 'EKVX NSCLC', '> 100 µM'),
  ('CCCCc1cc2c(C)cc(=O)oc2c(O)c1O', 'EKVX NSCLC', '> 100 µM'),
  ('CCCNCCCC(NC(C)=O)C(=O)NCc1ccccc1 (centres undefined)', 'EKVX NSCLC', '> 100 µM'),
  ('CC1OC2=N[C@@H]1C(=O)N[C@@H](C(C)C)C1=N[C@H](C(=O)N[C@@H](C(C)C)C3=N[C@H](C(=O)N[C@@H](C(C)C)C4=N[C@H](C(=O)N[C@H]2C(C)C)C(C)O4)C(C)O3)C(C)O1 (some centres undefined)', 'EKVX NSCLC', '> 10 µM'),
  ('N#CC(C#N)=C1C(C#N)=C(N)NC12OCCO2', 'EKVX NSCLC', '> 100 µM'),
  ('CCc1c(Cc2cccc3ccccc23)n2c(nc1=O)SCC2OCCO (centres undefined)', 'EKVX NSCLC', '> 100 µM'),
  ('CCCCS(=O)CCC(N)C(=O)O (centres undefined)', 'EKVX NSCLC', '> 100 µM'),
  ('CC(C)C1(O)C(c2ccccc2)=C(c2ccccc2)C(c2ccccc2)=C1c1ccccc1', 'EKVX NSCLC', '47 µM'),
  ('COC(=O)C1C(O)CC(c2ccccn2)N(Cc2ccccc2)C1c1ccccn1 (centres undefined)', 'EKVX NSCLC', '> 100 µM'),
  ('COc1ccc(N(C)C(=O)N(C)c2ccc([N+](=O)[O-])cc2)cc1', 'EKVX NSCLC', '> 100 µM'),
  ('CCOC(=O)/C(O)=C/c1cc(OC)cc(=O)o1', 'EKVX NSCLC', '> 100 µM'),
  ('O=C1C=CC(=O)C(CNc2ccc(C(=O)OC34CC5CC(CC(C5)C3)C4)cc2)=C1', 'EKVX NSCLC', '25.3 µM'),
  ('COc1ccc2c(c1)/C(=C\c1cccnc1)C(=O)N2', 'EKVX NSCLC', '25.2 µM'),
  ('CC1(C)OCC(C(O)C2OC(C)(C)OC2C=O)O1 (centres undefined)', 'EKVX NSCLC', '> 100 µM'),
  ('CC(=O)Nc1ccc(C(=O)NN2C(=O)C(Cl)C2c2ccc([N+](=O)[O-])cc2)cc1 (centres undefined)', 'EKVX NSCLC', '> 100 µM'),
  ('CC(=O)OCC1OC(n2c3c(c(-c4cccc5ccccc45)c(C#N)c2=S)CCCC3)C(OC(C)=O)C(OC(C)=O)C1OC(C)=O (centres undefined)', 'EKVX NSCLC', '> 100 µM'),
  ('O=C1CCC2(CCO1)OCCO2', 'EKVX NSCLC', '> 100 µM'),
  ('Cc1ccc(-c2cc(-c3ccco3)c(C#N)c(=O)[nH]2)cc1', 'EKVX NSCLC', '> 100 µM'),
  ('Cc1ccc(C(=O)O)c(CC2Cc3c(C)cccc3C2=O)c1 (centres undefined)', 'EKVX NSCLC', '> 100 µM'),
  ('COc1cc(/C=C/C(=O)c2c(=O)o[nH][n+]2-c2ccccc2)ccc1[O-]', 'EKVX NSCLC', '15.9 µM'),
  ('COc1ccccc1N=C(N)N/N=C/c1c[nH]c2ccccc12', 'EKVX NSCLC', '23.2 µM'),
  ('O=C1C=CC=CC2CC=C[C@@H](O)C12 (some centres undefined)', 'EKVX NSCLC', '63.5 µM'),
  ('CCOC(=O)C(=[N+]=[N-])C(=O)Nc1nn2nnnc2c2ccccc12', 'EKVX NSCLC', '> 100 µM'),
  ('CCOC(=O)C1=C(C(=O)c2ccc(C)cc2)C(c2cccc([N+](=O)[O-])c2)C(C(=O)c2ccc(C)cc2)=C(C(=O)OCC)N1', 'EKVX NSCLC', '47.1 µM'),
  ('CCC(=O)O[C@H]1CC[C@H]2[C@@H]3CC[C@H]4CC(=O)[C@H](C)C[C@]4(C)[C@H]3CC[C@]12C', 'EKVX NSCLC', '> 100 µM'),
  ('CCCCC1CC(c2cccc([N+](=O)[O-])c2)=NO1 (centres undefined)', 'EKVX NSCLC', '> 100 µM'),
  ('Cc1ccc(C(=O)N/N=C(\N=Nc2cccc(Cl)c2)c2ccc(N(CCC#N)CCC#N)cc2C)cc1', 'EKVX NSCLC', '> 100 µM'),
  ('O=C(Nc1ccc(Cl)cc1Cl)C(=O)C(C(=O)c1ccc2ccccc2c1)C1OC(=O)c2ccccc21 (centres undefined)', 'EKVX NSCLC', '35.9 µM'),
  ('CCOC(=O)C1(C(=O)OCC)[C@H](c2ccccc2)C2=NO[C@@H]3CCC[C@H]1[C@H]23', 'EKVX NSCLC', '> 100 µM'),
  ('O=CC(O)C(O)C(O)C(O)C(=O)NCCCCCCCCCCCCNC(=O)C(O)C(O)C(O)C(O)C=O (centres undefined)', 'EKVX NSCLC', '> 100 µM'),
  ('Cc1nc2c3c(ncn2n1)Oc1c(c(-c2ccccc2)nn1-c1ccccc1)C3c1ccc(Cl)cc1 (centres undefined)', 'EKVX NSCLC', '> 100 µM'),
  ('CC(C)CNCC(O)COc1ccc(C(C)(C)c2ccc(OCC(O)CNCC(C)C)cc2)cc1 (centres undefined)', 'EKVX NSCLC', '17.8 µM'),
  ('Cc1ccc(C2=NOC(=O)[C@@H]3CCCC[C@@H]23)cc1', 'EKVX NSCLC', '> 100 µM');
